- measured-target: full-length recombinant mouse PAD4 (mouse) (UniProt Q9Z183)
- Sequence (Q9Z183 whole entry): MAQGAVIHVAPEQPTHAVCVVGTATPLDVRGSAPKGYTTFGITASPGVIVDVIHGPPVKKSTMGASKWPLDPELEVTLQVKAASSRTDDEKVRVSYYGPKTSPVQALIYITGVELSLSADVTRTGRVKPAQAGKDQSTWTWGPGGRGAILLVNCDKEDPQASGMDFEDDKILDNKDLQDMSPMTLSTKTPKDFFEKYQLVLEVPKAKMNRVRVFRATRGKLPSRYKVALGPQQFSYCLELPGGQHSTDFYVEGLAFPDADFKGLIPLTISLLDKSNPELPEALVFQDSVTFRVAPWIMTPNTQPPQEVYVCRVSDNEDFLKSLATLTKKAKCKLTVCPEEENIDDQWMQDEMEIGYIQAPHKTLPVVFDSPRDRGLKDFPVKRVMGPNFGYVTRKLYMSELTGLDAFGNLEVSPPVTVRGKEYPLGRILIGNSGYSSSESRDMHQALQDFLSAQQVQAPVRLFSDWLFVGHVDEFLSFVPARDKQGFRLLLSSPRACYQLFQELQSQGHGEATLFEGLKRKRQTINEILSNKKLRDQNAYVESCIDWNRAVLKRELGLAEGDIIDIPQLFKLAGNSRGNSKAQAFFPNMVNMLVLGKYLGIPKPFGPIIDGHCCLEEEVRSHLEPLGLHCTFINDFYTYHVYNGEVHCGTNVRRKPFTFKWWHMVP
- procedure-summary: ELISA, mouse PAD4 on plate, antibody 0.0009766 ug/mL
parameter-measured: absorbance 490 nm/630 nm (OD)
Give the quantity in OD, number only.

Consider the following illustrative entries.
- binder: "G8 (antibody, IgG1, V domains shown) VH: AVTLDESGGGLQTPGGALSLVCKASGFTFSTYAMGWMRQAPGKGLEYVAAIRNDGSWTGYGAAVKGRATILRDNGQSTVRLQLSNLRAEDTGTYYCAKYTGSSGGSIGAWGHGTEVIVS VL: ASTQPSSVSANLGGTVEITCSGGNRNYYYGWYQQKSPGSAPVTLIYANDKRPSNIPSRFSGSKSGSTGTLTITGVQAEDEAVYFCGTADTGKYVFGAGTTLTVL"
  unit-annotation: "OD"
  absorbance 490 nm/630 nm: 0.555
- binder: "E9 (antibody, IgG1, V domains shown) VH: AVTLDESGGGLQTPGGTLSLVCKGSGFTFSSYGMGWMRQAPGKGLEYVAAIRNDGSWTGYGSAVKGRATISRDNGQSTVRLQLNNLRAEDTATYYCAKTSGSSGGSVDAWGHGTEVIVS VL: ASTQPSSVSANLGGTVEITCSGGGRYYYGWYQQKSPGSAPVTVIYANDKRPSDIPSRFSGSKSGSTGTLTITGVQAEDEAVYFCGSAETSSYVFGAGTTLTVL"
  unit-annotation: "OD"
  absorbance 490 nm/630 nm: 0.416
- binder: "G9 (antibody, IgG1, V domains shown) VH: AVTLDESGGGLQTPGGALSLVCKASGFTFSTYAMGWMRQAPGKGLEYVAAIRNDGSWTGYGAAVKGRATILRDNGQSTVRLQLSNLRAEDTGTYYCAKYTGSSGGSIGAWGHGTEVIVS VL: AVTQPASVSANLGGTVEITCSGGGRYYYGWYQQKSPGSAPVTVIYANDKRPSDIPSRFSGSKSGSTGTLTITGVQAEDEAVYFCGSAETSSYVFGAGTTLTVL"
  unit-annotation: "OD"
  absorbance 490 nm/630 nm: 0.542

For the next question, use this binder.
Data request: Give its absorbance 490 nm/630 nm value. Item: G6 (antibody, IgG1, V domains shown) VH: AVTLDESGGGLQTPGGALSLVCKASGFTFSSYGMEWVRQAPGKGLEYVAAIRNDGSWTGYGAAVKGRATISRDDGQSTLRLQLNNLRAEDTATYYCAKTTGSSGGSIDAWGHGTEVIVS VL: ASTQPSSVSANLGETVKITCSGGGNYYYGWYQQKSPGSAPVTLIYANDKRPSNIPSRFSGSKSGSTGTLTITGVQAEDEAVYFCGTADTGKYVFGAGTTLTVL
Data returned: 0.2
